experimental.target: Eukaryotic initiation factor 4A-I (Homo sapiens, UniProt P60842)
Sequence (P60842 whole entry): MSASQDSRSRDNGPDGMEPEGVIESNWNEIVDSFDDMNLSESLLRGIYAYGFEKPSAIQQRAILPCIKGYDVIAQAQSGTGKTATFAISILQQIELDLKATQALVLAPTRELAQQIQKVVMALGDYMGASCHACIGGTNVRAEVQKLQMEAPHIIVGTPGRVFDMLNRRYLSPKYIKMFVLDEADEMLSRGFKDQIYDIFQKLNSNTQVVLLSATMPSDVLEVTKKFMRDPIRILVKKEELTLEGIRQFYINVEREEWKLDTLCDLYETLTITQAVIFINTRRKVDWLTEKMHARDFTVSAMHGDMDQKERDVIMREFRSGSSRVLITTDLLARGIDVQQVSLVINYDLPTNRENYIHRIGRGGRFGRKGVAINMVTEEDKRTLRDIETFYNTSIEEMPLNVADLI
experiment.description: Inhibition of eIF4A (unknown origin) assessed as inhibition of translation of RNA featuring highly structured 5'-UTR of c-Myc
Response field label takes 1 when IC50 is strictly below 5 nM and -1 in all other cases.

As a guide, the following entries are already answered.
COc1cncc2c1[C@]1(O)[C@@H](CN3CCOCC3)[C@H](CO)[C@@H](c3ccccc3)[C@]1(c1ccc(Br)cc1)O2 (racemic) :: -1
COc1cncc2c1[C@]1(O)[C@@H](CN)[C@H](CO)[C@@H](c3ccccc3)[C@]1(c1ccc(Br)cc1)O2 (racemic) :: -1
COc1cncc2c1[C@]1(O)[C@@H](CN)C[C@@H](c3ccccc3)[C@]1(c1ccc(C#N)cc1)O2 (racemic) :: -1

Input: Could you please tell me whether IC50 recorded for COc1cncc2c1[C@]1(O)[C@@H](CNC3COC3)[C@H](CO)[C@@H](c3ccccc3)[C@]1(c1ccc(Br)cc1)O2 (racemic) is less than 5 nM?
Output: 1

====

experimental.target: hERG (KCNH2) (Homo sapiens)
Sequence (Q12809 whole entry): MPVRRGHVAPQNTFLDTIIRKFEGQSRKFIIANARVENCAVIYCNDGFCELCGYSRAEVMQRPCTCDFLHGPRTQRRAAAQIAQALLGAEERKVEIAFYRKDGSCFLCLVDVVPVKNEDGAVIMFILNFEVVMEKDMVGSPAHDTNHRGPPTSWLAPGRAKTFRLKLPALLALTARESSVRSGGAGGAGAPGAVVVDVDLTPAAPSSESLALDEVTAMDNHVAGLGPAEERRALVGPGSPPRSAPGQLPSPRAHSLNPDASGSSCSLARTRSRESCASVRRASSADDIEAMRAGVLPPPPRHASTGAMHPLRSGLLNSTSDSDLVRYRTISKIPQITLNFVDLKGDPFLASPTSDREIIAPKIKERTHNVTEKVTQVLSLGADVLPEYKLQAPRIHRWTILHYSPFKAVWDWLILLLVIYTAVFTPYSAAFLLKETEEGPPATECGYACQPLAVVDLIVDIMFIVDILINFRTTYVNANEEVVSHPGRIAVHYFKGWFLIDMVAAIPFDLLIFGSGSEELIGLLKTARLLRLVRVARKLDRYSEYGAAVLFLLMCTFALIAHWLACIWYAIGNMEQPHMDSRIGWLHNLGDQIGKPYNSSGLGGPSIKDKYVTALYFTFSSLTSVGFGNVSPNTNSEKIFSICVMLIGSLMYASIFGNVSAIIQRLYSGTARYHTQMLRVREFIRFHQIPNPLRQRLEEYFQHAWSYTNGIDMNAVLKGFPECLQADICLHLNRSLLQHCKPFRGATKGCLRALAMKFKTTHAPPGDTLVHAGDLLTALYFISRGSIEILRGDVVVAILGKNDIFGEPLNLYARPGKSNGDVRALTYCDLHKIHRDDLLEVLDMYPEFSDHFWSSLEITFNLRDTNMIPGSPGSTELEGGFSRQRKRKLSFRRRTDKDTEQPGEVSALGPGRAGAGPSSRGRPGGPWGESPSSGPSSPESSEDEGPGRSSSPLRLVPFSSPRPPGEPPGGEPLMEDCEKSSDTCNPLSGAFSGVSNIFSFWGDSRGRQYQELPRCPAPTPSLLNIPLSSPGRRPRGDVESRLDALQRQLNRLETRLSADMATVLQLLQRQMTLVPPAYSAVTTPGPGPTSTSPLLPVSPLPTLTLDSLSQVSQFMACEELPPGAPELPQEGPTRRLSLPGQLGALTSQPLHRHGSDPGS
experiment.description: Inhibition of human ERG at 10 uM by automated patch method relative to control
// inhibition at 10 µM lookup, one value per entry

COc1cncc2c1[C@]1(O)[C@@H](CNC3COC3)[C@H](CO)[C@@H](c3ccccc3)[C@]1(c1ccc(C#N)cc1)O2 (racemic) :: < 10%
COc1cncc2c1[C@]1(O)[C@@H](CN3CCOCC3)[C@H](CO)[C@@H](c3ccccc3)[C@]1(c1ccc(C#N)cc1)O2 (racemic) :: < 10%

# evaluate next
Input: inhibition at 10 µM lookup needed for COc1cncc2c1[C@]1(O)[C@@H](CN)[C@H](CO)[C@@H](c3ccccc3)[C@]1(c1ccc(C#N)cc1)O2 (racemic) , thanks.
Output: < 10%
